experiment: NCI Yeast Anticancer Drug Screen. Data for the sgs1 mgt1 strain (AID 161); conditions: S. cerevisiae sgs1 mgt1 strain, at 50.0 µM
Compounds without any hit were thinned out: in the full panel of roughly 79,000, 15% have a hit. The source made the active and inactive calls. No stated cut-off is given here; in the data, active means growth inhibition above about 70%; inactive means the rest.
I would appreciate it if you answered using one of these outcomes: active, inactive

As a guide, the following entries are already answered.
Query: GET /call?item= CC(=O)N(c1ccc(NC(=O)c2ccc(N3C(=O)c4ccccc4C3=O)cc2[N+](=O)[O-])cc1)c1cc[n+](C)cc1 returns the recorded outcome of this test.
Reply: inactive

Query: Assay outcome for O=C(C1OC1c1cccc([N+](=O)[O-])c1)C12CC3CC(CC(C3)C1)C2 (configuration not stated) : what was it?
Reply: inactive

Query: Lab log entry: Cc1cc(N(CCC#N)CCC#N)ccc1N=Nc1cccc(C(=O)O)c1 — outcome as called in the assay?
Reply: inactive

Query: For Cc1ccc(-n2cnc(C(=N)C#N)c2N)cc1 , what call appears in the results of this test?
Reply: inactive

Query: Short answer needed: outcome of this test for Cc1[nH]c(=O)[nH]c(=O)c1/C=C/C(=O)NC(CO)CS(=O)C(C)C (configuration not stated) ?
Reply: active

Others:
Query: Test call for this compound, please: [Co].[O-]c1cccnc1C=Nc1ccccc1.[OH3+]
Reply: inactive

Query: In this assay, the call recorded for CCOC(=O)C1CC(=O)C2/C(=C(\O)c3ccccc3)C=C([N+](=O)[O-])C1C2[N+](=O)[O-] (configuration not stated) was what?
Reply: inactive

Query: # outcome recorded in this test, key = CCCC(=O)C(N)Cc1ccccc1 (configuration not stated)
Reply: inactive

Query: Per the assay record, what outcome was assigned to COc1ccc(CN)cc1 ?
Reply: inactive

Query: Any idea what this test logged for O=S(O)CCCSSc1ccccc1 ?
Reply: inactive

Query: Tell me the recorded outcome of this test for Cc1ccc(C2(c3ccccc3)c3ccccc3C(=O)N2c2ccccc2)cc1 (configuration not stated) .
Reply: active

Query: What classification did CC(c1cccc2ccccc12)/[N+]([O-])=C/c1ccccc1 (configuration not stated) end up with in this test?
Reply: inactive

Query: Test call, this compound: O=C(CCSc1ncnc2nc[nH]c12)c1ccccc1
Reply: inactive

Query: Answer briefly: the call reported for O=C(O)c1cccc(S(=O)(=O)NN2C(=O)CSC2c2ccccc2Cl)c1 (configuration not stated) in this assay.
Reply: inactive

Query: Give the logged outcome of this assay for the following compound: CCOC(=O)CCCCCCCCCCCCCCCCC(=O)OCC
Reply: inactive

Query: Please state the recorded outcome for this compound: O=C1C2=C(Nc3cc(Cl)ccc3N2)OC1c1ccc(C2OC3=C(Nc4ccc(Cl)cc4N3)C2=O)cc1 (configuration not stated)
Reply: inactive

Query: Give the logged outcome of this assay for the following compound: Nc1scc[n+]1CCC(=O)[O-]
Reply: inactive

Query: Please indicate how the test categorized CC1C2CC(C(C3C(=O)C4CC3C(C)(C)C4C)C2=O)C1(C)C (configuration not stated) .
Reply: inactive

Query: Returns: the outcome recorded for CC(=O)N1C(Nc2ccccc2)CCN1c1ccccc1 (configuration not stated) in this assay.
Reply: inactive
